The values you see were collected from ChEMBL document CHEMBL3867431.

Target: Alpha-1B adrenergic receptor (Homo sapiens)
Sequence (P35368 whole entry): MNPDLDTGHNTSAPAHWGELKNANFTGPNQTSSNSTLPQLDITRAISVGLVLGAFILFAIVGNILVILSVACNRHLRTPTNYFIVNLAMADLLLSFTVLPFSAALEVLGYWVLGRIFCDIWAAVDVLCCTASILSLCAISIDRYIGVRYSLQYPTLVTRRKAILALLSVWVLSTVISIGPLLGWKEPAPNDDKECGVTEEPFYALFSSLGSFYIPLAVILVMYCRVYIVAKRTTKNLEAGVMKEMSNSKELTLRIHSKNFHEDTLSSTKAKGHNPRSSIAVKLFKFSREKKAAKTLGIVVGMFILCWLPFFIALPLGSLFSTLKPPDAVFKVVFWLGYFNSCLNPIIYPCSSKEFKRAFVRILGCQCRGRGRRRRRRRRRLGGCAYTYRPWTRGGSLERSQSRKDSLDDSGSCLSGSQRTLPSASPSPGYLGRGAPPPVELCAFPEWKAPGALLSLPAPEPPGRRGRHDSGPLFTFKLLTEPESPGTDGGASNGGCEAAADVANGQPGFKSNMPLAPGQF
pKi: −log10 of the molar value.
Answer No if pKi is under 8, and Yes if it is 8 or more.

Some solved cases for reference:
structure_as_smiles	category
CCOc1ccccc1N1CCN(CCc2ccc3c(c2)OCO3)CC1	Yes
CCOc1ccccc1N1CCN(CCc2cccc(OC)c2)CC1	No
COc1ccccc1N1CCN(CCc2ccccc2)CC1	No
COc1ccccc1N1CCN(CCc2ccc3c(c2)OCO3)CC1	Yes

We next turn to a different compound, shown below.
Prompt line: Evaluate "CC(C)Oc1ccccc1N1CCN(CCc2ccccc2)CC1" : pKi at minimum 8?
Response line: No
